These data points were gathered from patent US10385057B2.

Biological target: MAGL (Mus musculus, UniProt O35678)
Construct: mouse brain membrane fraction or cell lysates for mouse assays
Sequence (O35678 whole entry): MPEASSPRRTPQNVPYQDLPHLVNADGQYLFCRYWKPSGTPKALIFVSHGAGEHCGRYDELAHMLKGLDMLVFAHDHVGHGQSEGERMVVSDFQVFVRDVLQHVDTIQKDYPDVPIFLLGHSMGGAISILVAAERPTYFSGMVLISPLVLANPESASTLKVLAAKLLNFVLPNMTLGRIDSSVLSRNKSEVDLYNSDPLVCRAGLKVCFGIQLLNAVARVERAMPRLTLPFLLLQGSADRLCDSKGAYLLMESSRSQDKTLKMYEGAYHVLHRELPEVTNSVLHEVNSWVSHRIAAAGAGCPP
Assay: In vitro competitive activity-based protein profiling, mouse MAGL
metric: IC50

**Query** Form field: reported IC50 of CC(C)c1ccc(CN2CC3CN(C(=O)n4cc(Cl)cn4)CC3C2)c(N2CCCC2)c1 (stereo not shown)
**Result** 100 to 1000 nM

**Query** // query IC50 value for entry CNC(=O)c1cnn(C(=O)N2CC3CN(Cc4ccc(Cl)cc4)CC3C2)c1 (stereo not shown)
**Result** 1000 to 10000 nM

**Query** Dear colleague, I am looking for the recorded IC50 of the following compound: COc1cccc(CN2CC3CN(C(=O)n4cc(C(F)(F)F)cn4)CC3C2)c1 (stereo not shown)
**Result** ≤ 100 nM

**Query** Any idea what IC50 was measured for Cc1ccccc1CN1CCC2(CCN(C(=O)n3cc(C(F)(F)F)cn3)C2)C1 (stereo not shown) ?
**Result** 100 to 1000 nM

**Query** Fill blank: measured IC50 of the compound O=C(N1CC2CN(Cc3ccc(Cl)cc3N3CCOCC3)CC2C1)n1cc(Cl)cn1 (stereo not shown) is ____.
**Result** ≤ 100 nM

* * *

Biological target: MAGL (Mus musculus, UniProt O35678)
Construct: mouse brain membrane fraction or cell lysates for mouse assays; from tissue
Experiment: In vitro competitive activity-based protein profiling, mouse MAGL
Type: biochemical
Conditions: 1 μM, read-out: MAGL % inh. 1 μM (mouse)
metric: inhibition at 1 µM

**Query** GET /values?readout=inhibition at 1 µM&system=MAGL (Mus musculus, UniProt O35678)&item= CN(Cc1ccccc1Cl)[C@@H]1C[C@@H]2CN(C(=O)n3cc(C(=O)N4CCOCC4)cn3)C[C@@H]2C1 [Example 85]
**Result** 50 to 75%

**Query** Lab request: please report inhibition at 1 µM under test system MAGL (Mus musculus, UniProt O35678) for CN(Cc1ccc(N2CCOCC2)cc1)[C@@H]1C[C@@H]2CN(C(=O)n3cc(Cl)cn3)C[C@@H]2C1 [Example 77]
**Result** 50 to 75%

**Query** Return inhibition at 1 µM measured with MAGL (Mus musculus, UniProt O35678) given this compound: O=C(N1CC2CN(Cc3cccc(N4CCCC4)c3)CC2C1)n1cc(C(F)(F)F)cn1 (stereo not shown) [Example 144]
**Result** ≥ 75%

**Query** So what inhibition at 1 µM did O=C(N1CCC2(CCN(Cc3cccc(Cl)c3)C2)C1)n1cc(C(F)(F)F)cn1 (stereo not shown) [Example 168] get with MAGL (Mus musculus, UniProt O35678)?
**Result** ≥ 75%

**Query** Reported inhibition at 1 µM for MAGL (Mus musculus, UniProt O35678), given O=C(N1CCC2(CCN(Cc3cccc(N4CCOCC4)c3)C2)C1)n1cc(C(F)(F)F)cn1 (stereo not shown) [Example 175] ?
**Result** ≥ 75%

**Query** Identify the measured inhibition at 1 µM of CN(Cc1ccc(C(F)(F)F)cc1)[C@H]1C[C@@H]2CN(C(=O)n3cc(C(=O)N4CCN(C5CC5)CC4)cn3)C[C@@H]2C1 [Example 186] for MAGL (Mus musculus, UniProt O35678).
**Result** ≥ 75%

**Query** Notebook: pull reported inhibition at 1 µM for MAGL (Mus musculus, UniProt O35678), entry CN(Cc1cccc(N2CCOCC2)c1)[C@H]1C[C@@H]2CN(C(=O)n3cc(Cl)cn3)C[C@@H]2C1 [Example 82]
**Result** ≥ 75%
